B1: library; numbered along this chain (parent)
chain: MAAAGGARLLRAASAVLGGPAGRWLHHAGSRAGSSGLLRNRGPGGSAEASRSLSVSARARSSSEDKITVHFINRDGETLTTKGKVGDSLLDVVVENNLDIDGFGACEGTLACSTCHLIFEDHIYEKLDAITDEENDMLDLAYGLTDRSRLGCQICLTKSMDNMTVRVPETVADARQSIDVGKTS

# Variants of: B1
# RUN DESCRIPTION: scaled log2 fold change in cell abundance, elesclomol vs control (0 = silent mean, 1 = nonsense mean) (scaled log2 ratio); higher = higher viability under elesclomol (loss of FDX1 cuproptosis function);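 further: variant abundance is its share of total variant reads in each endpoint sample, from next-generation sequencing of the integrated ORF PCR-amplified out of genomic DNA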
# TEST CONDITIONS: with HEK293T FDX1 KO; elesclomol 40 nM; glucose 10 mM; 11 days
QUANTITY: scaled log2 fold change
Answers are plain numbers.

State the recorded scaled log2 fold change for every item in the following list.
1. Y124L
2. G104I
3. P168R
4. D75L
5. T68Y

Result string:
0.75
1.53
0.117
-0.00446
0.0848
